B1: Mannan-binding lectin serine protease 2 (Homo sapiens), O00187-2 (parent)
chain: MRLLTLLGLLCGSVATPLGPKWPEPVFGRLASPGFPGEYANDQERRWTLTAPPGYRLRLYFTHFDLELSHLCEYDFVKLSSGAKVLATLCGQESTDTERAPGKDTFYSLGSSLDITFRSDYSNEKPFTGFEAFYAAEDIDECQVAPGEAPTCDHHCHNHLGGFYCSCRAGYVLHRNKRTCSEQSL

Variants of: B1
TEST_CONTEXT: with fcn2_human FCN2, Q15485
Sequence (Q15485 whole entry): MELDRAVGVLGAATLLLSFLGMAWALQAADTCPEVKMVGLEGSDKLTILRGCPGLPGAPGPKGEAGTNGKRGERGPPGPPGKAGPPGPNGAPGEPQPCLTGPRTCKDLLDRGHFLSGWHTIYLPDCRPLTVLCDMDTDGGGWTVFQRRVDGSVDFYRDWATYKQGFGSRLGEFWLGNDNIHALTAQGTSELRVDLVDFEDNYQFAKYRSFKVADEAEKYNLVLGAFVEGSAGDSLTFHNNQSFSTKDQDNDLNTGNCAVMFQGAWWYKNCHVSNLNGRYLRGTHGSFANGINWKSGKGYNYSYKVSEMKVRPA
MEASURED_PROPERTY: effect of a mutation on the interaction

Solved cases (5 shown):
E93Q: with no effect
D96N: with no effect
E124A: with no effect
H70A: with no effect
E73A: with no effect

# evaluate next
Q: # return recorded effect of a mutation on the interaction for entry `R56A`
A: with no effect
